Please provide measured IC50 for the entries that follow.
- Tested on: 282377-053-R-J1-PDC complex spheroid viability
- assay.notes: Anticancer human tumor 282377-053-R-J1-PDC patient-derived colon adenocarcinoma cell line growth inhibition [POLQ]
- condition.description: curve of first compound; second compound 0.0316 µM

Example entries and their recorded answers appear below.
CNCc1ccc(-c2[nH]c3cc(F)cc4c3c2CCNC4=O)cc1 + Nc1ccc(C#CCN(C(=O)Cc2ncc(C(F)(F)F)cc2C(F)(F)F)c2ccc(F)cc2)nn1 | > 10 µM
CCc1cc2c(N3CCc4c(cc(Cn5ccnc5)cc4-c4cn(C)nc4C(F)(F)F)C3=O)ccnc2c(OC)n1 + Nc1ccc(C#CCN(C(=O)Cc2ncc(C(F)(F)F)cc2C(F)(F)F)c2ccc(F)cc2)nn1 | > 10 µM
CC1COCCN1c1cc(C2(S(C)(=N)=O)CC2)nc(-c2ccnc3[nH]ccc23)n1 (stereo not given) + Nc1ccc(C#CCN(C(=O)Cc2ncc(C(F)(F)F)cc2C(F)(F)F)c2ccc(F)cc2)nn1 | > 10 µM

For every record below, what is its IC50?
1. CCCS(=O)(=O)Nc1ccc(F)c(C(=O)c2c[nH]c3ncc(-c4ccc(Cl)cc4)cc23)c1F + Nc1ccc(C#CCN(C(=O)Cc2ncc(C(F)(F)F)cc2C(F)(F)F)c2ccc(F)cc2)nn1
2. CNCc1ccc(-c2[nH]c3cc(F)cc4c3c2CCNC4=O)cc1 + Cc1cccc(N(C)C(=O)C2C(O)CCN2c2nc(C)cc(C(F)(F)F)c2C#N)c1
3. CC[C@@]1(O)C(=O)OCc2c1cc1n(c2=O)Cc2cc3c(CN(C)C)c(O)ccc3nc2-1 + Nc1ccc(C#CCN(C(=O)Cc2ncc(C(F)(F)F)cc2C(F)(F)F)c2ccc(F)cc2)nn1

> 10 µM
> 10 µM
> 0.1 µM

Lab note: each compound below needs its IC50 filled in.
1. CCc1cc2c(N3CCc4c(cc(Cn5ccnc5)cc4-c4cn(C)nc4C(F)(F)F)C3=O)cc(C)nc2c(OC)n1 + COC1C(OC(N)=O)C(O)C(Oc2ccc3c(O)c(NC(=O)c4ccc(O)c(CC=C(C)C)c4)c(=O)oc3c2C)OC1(C)C
2. Cn1ncnc1[C@H]1c2n[nH]c(=O)c3cc(F)cc(c23)N[C@@H]1c1ccc(F)cc1 + Cc1cccc(N(C)C(=O)C2C(O)CCN2c2nc(C)cc(C(F)(F)F)c2C#N)c1
3. COc1cc2cc(C(=O)CCC(=O)O)sc2cc1OC + COC1C(OC(N)=O)C(O)C(Oc2ccc3c(O)c(NC(=O)c4ccc(O)c(CC=C(C)C)c4)c(=O)oc3c2C)OC1(C)C
4. C#Cc1c(F)ccc2cc(O)cc(-c3ncc4c(N5CC6CCC(C5)N6)nc(OCC56CCCN5CC(F)C6)nc4c3F)c12 (stereo not given) + COC1C(OC(N)=O)C(O)C(Oc2ccc3c(O)c(NC(=O)c4ccc(O)c(CC=C(C)C)c4)c(=O)oc3c2C)OC1(C)C

> 10 µM
> 0.1 µM
> 10 µM
> 10 µM

----------
Kindly state viability, T/C for each of the entries shown.
- System: 282377-053-R-J1-PDC complex spheroid viability
- assay.notes: Anticancer human tumor 282377-053-R-J1-PDC cell line growth inhibition [POLQ];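 note: spheroids exposed to compounds for seven days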;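 for viability, T/C: 100% = DMSO vehicle control viability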
- condition.description: second compound 10 µM; first compound 0.0316 µM; stronger effect = lower value
Answers are plain numbers, in %.

Some solved entries appear below for comparison.
COc1cc(C2c3cc4c(cc3C(OC3OC5COC(C)OC5C(O)C3O)C3COC(=O)C23)OCO4)cc(OC)c1O (stereo not given) + Cc1cccc(N(C)C(=O)C2C(O)CCN2c2nc(C)cc(C(F)(F)F)c2C#N)c1 | 103
CCc1cc2c(N3CCc4c(cc(Cn5ccnc5)cc4-c4cn(C)nc4C(F)(F)F)C3=O)ccnc2c(OC)n1 + COC1C(OC(N)=O)C(O)C(Oc2ccc3c(O)c(NC(=O)c4ccc(O)c(CC=C(C)C)c4)c(=O)oc3c2C)OC1(C)C | 115
CC(C)n1c(=O)n(C)c2cnc3cc(F)c(-c4ccc(OCCCN5CCCCC5)nc4)cc3c21 + Cc1cccc(N(C)C(=O)C2C(O)CCN2c2nc(C)cc(C(F)(F)F)c2C#N)c1 | 93.2

Please look at the items below and tell me viability, T/C for each one, in order.
1. CC(C)n1c(=O)n(C)c2cnc3cc(F)c(-c4ccc(OCCCN5CCCCC5)nc4)cc3c21 + COC1C(OC(N)=O)C(O)C(Oc2ccc3c(O)c(NC(=O)c4ccc(O)c(CC=C(C)C)c4)c(=O)oc3c2C)OC1(C)C
2. COc1cccc(OCCCN)c1-c1cc(Nc2cnc(C#N)cn2)n[nH]1 + Cc1cccc(N(C)C(=O)C2C(O)CCN2c2nc(C)cc(C(F)(F)F)c2C#N)c1

1. 98.2
2. 72.3

----------
- Test system: 282377-053-R-J1-PDC complex spheroid viability
- assay.notes: Anticancer human tumor 282377-053-R-J1-PDC cell line growth inhibition [POLQ];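 note: spheroids exposed to compounds for seven days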;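 for viability, T/C: 100% = DMSO vehicle control viability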
- condition.description: second compound 3.16 µM; first compound 10 µM; stronger effect = lower value
Provide the reported viability, T/C of each item.
One number for each entry, in %.

CC1COCCN1c1cc(-c2ccnn2C)c2ccnc(-c3ccn[nH]3)c2n1 (stereo not drawn) + Cc1cccc(N(C)C(=O)C2C(O)CCN2c2nc(C)cc(C(F)(F)F)c2C#N)c1 | 22.5
C#Cc1c(F)ccc2cc(O)cc(-c3ncc4c(N5CC6CCC(C5)N6)nc(OCC56CCCN5CC(F)C6)nc4c3F)c12 (stereo not drawn) + COC1C(OC(N)=O)C(O)C(Oc2ccc3c(O)c(NC(=O)c4ccc(O)c(CC=C(C)C)c4)c(=O)oc3c2C)OC1(C)C | 87.7

Then this molecule:
# lookup: viability, T/C of COc1ccc([C@@H](O)c2cc(-c3ncnc4cc(N5CCOCC5)ccc34)c(F)cc2Cl)nn1 + Cc1cccc(N(C)C(=O)C2C(O)CCN2c2nc(C)cc(C(F)(F)F)c2C#N)c1
68.5

----------
- System: 282377-053-R-J1-PDC complex spheroid viability
- assay.notes: Anticancer human tumor 282377-053-R-J1-PDC cell line growth inhibition [POLQ];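 note: spheroids exposed to compounds for seven days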;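 for viability, T/C: 100% = DMSO vehicle control viability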
- condition.description: second compound 10 µM; first compound 0.001 µM; stronger effect = lower value
Hi there, I'd appreciate the recorded viability, T/C for every entry that follows.
Numbers only, in %.

Solved entries:
Cn1ncnc1[C@H]1c2n[nH]c(=O)c3cc(F)cc(c23)N[C@@H]1c1ccc(F)cc1 + Nc1ccc(C#CCN(C(=O)Cc2ncc(C(F)(F)F)cc2C(F)(F)F)c2ccc(F)cc2)nn1 | 119
Cn1ncnc1[C@H]1c2n[nH]c(=O)c3cc(F)cc(c23)N[C@@H]1c1ccc(F)cc1 + Cc1cccc(N(C)C(=O)C2C(O)CCN2c2nc(C)cc(C(F)(F)F)c2C#N)c1 | 102
CC[C@@]1(O)C(=O)OCc2c1cc1n(c2=O)Cc2cc3c(CN(C)C)c(O)ccc3nc2-1 + Nc1ccc(C#CCN(C(=O)Cc2ncc(C(F)(F)F)cc2C(F)(F)F)c2ccc(F)cc2)nn1 | 93.7
CC[C@@]1(O)C(=O)OCc2c1cc1n(c2=O)Cc2cc3c(CN(C)C)c(O)ccc3nc2-1 + COC1C(OC(N)=O)C(O)C(Oc2ccc3c(O)c(NC(=O)c4ccc(O)c(CC=C(C)C)c4)c(=O)oc3c2C)OC1(C)C | 110
Cn1ncnc1[C@H]1c2n[nH]c(=O)c3cc(F)cc(c23)N[C@@H]1c1ccc(F)cc1 + COC1C(OC(N)=O)C(O)C(Oc2ccc3c(O)c(NC(=O)c4ccc(O)c(CC=C(C)C)c4)c(=O)oc3c2C)OC1(C)C | 98.5

Would you kindly look at the next entry?
Entry CC[C@@]1(O)C(=O)OCc2c1cc1n(c2=O)Cc2cc3c(CN(C)C)c(O)ccc3nc2-1 + Cc1cccc(N(C)C(=O)C2C(O)CCN2c2nc(C)cc(C(F)(F)F)c2C#N)c1 has what viability, T/C?
93.9

----------
- Tested on: 282377-053-R-J1-PDC complex spheroid viability
- assay.notes: Anticancer human tumor 282377-053-R-J1-PDC cell line growth inhibition [POLQ];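 note: spheroids exposed to compounds for seven days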;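 for viability, T/C: 100% = DMSO vehicle control viability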
- condition.description: second compound 1 µM; first compound 1 µM; stronger effect = lower value
Answer each item with its documented viability, T/C.
One number for each entry, in %.

CC1COCCN1c1cc(C2(S(C)(=N)=O)CC2)nc(-c2ccnc3[nH]ccc23)n1 (stereo unspecified) + COC1C(OC(N)=O)C(O)C(Oc2ccc3c(O)c(NC(=O)c4ccc(O)c(CC=C(C)C)c4)c(=O)oc3c2C)OC1(C)C | 81

Can you give me viability, T/C for all of these, one by one?
1. CC1COCCN1c1cc(C2(O)CC3CCC(C2)O3)c2cnn(-c3ccn[nH]3)c2n1 (stereo unspecified) + Cc1cccc(N(C)C(=O)C2C(O)CCN2c2nc(C)cc(C(F)(F)F)c2C#N)c1
2. O=c1[nH]cc(F)c(=O)[nH]1 + Nc1ccc(C#CCN(C(=O)Cc2ncc(C(F)(F)F)cc2C(F)(F)F)c2ccc(F)cc2)nn1
3. CNCc1ccc(-c2[nH]c3cc(F)cc4c3c2CCNC4=O)cc1 + Cc1cccc(N(C)C(=O)C2C(O)CCN2c2nc(C)cc(C(F)(F)F)c2C#N)c1

[37.2, 108, 104]

Quick request: viability, T/C for each listed item, please.
1. C=CC(=O)N1CCN(c2nc(=O)n(-c3c(C)ccnc3C(C)C)c3nc(-c4c(O)cccc4F)c(F)cc23)C(C)C1 (stereo unspecified) + Cc1cccc(N(C)C(=O)C2C(O)CCN2c2nc(C)cc(C(F)(F)F)c2C#N)c1
2. COc1cccc(OCCCN)c1-c1cc(Nc2cnc(C#N)cn2)n[nH]1 + COC1C(OC(N)=O)C(O)C(Oc2ccc3c(O)c(NC(=O)c4ccc(O)c(CC=C(C)C)c4)c(=O)oc3c2C)OC1(C)C
3. C=CCn1c(=O)c2cnc(Nc3ccc(N4CCN(C)CC4)cc3)nc2n1-c1cccc(C(C)(C)O)n1 + Cc1cccc(N(C)C(=O)C2C(O)CCN2c2nc(C)cc(C(F)(F)F)c2C#N)c1
4. O=C(c1cc(Cc2n[nH]c(=O)c3ccccc23)ccc1F)N1CCN(C(=O)C2CC2)CC1 + COC1C(OC(N)=O)C(O)C(Oc2ccc3c(O)c(NC(=O)c4ccc(O)c(CC=C(C)C)c4)c(=O)oc3c2C)OC1(C)C
5. CNCc1ccc(-c2[nH]c3cc(F)cc4c3c2CCNC4=O)cc1 + COC1C(OC(N)=O)C(O)C(Oc2ccc3c(O)c(NC(=O)c4ccc(O)c(CC=C(C)C)c4)c(=O)oc3c2C)OC1(C)C
6. COc1cc2cc(C(=O)CCC(=O)O)sc2cc1OC + COC1C(OC(N)=O)C(O)C(Oc2ccc3c(O)c(NC(=O)c4ccc(O)c(CC=C(C)C)c4)c(=O)oc3c2C)OC1(C)C

1: 80.8; 2: 33.2; 3: 73; 4: 119; 5: 103; 6: 97.1

Please look up its viability, T/C: COc1cc(C2c3cc4c(cc3C(OC3OC5COC(C)OC5C(O)C3O)C3COC(=O)C23)OCO4)cc(OC)c1O (stereo unspecified) + Cc1cccc(N(C)C(=O)C2C(O)CCN2c2nc(C)cc(C(F)(F)F)c2C#N)c1
98.1
